system: Candida albicans; experiment: Antimicrobial activity against Candida albicans ATCC 10231 after 24 hrs by spectrophotometric method; format: functional, organism-based
The source made the active and inactive calls. No cut-off for these calls is given here.
READOUT KIND: Activity

The recorded Activity for entry CC[C@@H](C)[C@H](NC(=O)[C@H](CCC(N)=O)NC(=O)[C@@](C)(CC)NC(C)=O)C(=O)N[C@H](C(=O)NC(C)(C)C(=O)N1CCC[C@H]1C(=O)N[C@H](C(=O)N[C@@H](CC(C)C)C(=O)NC(C)(C)C(=O)N1CCC[C@H]1C(=O)N[C@H](CO)CC(C)C)[C@@H](C)CC)C(C)C equals inactive

The recorded Activity for entry CC[C@@H](C)[C@H](NC(=O)[C@H](CCC(N)=O)NC(=O)C(C)(C)NC(C)=O)C(=O)N[C@H](C(=O)NC(C)(C)C(=O)N1CCC[C@H]1C(=O)N[C@H](C(=O)N[C@@H](CC(C)C)C(=O)NC(C)(C)C(=O)N1CCC[C@H]1C(=O)N[C@H](CO)CC(C)C)[C@@H](C)CC)C(C)C equals inactive

---

system: NCI-H460; assay: Cytotoxicity against human NCI-H460 cells assessed as inhibition of cell growth after 48 hrs by MTT assay; type: cell-based; settings: NCI-H460, 48 h
READOUT KIND: IC50 (µM)
The reply should be a number in µM, with the unit left off.

The recorded IC50 for entry CC[C@@H](C)[C@H](NC(=O)[C@H](CCC(N)=O)NC(=O)[C@@](C)(CC)NC(C)=O)C(=O)N[C@H](C(=O)NC(C)(C)C(=O)N1CCC[C@H]1C(=O)N[C@H](C(=O)N[C@@H](CC(C)C)C(=O)NC(C)(C)C(=O)N1CCC[C@H]1C(=O)N[C@H](CO)CC(C)C)[C@@H](C)CC)C(C)C equals 10.9

Moving on to another compound below.
The recorded IC50 for entry CC[C@@H](C)[C@H](NC(=O)[C@H](CCC(N)=O)NC(=O)[C@@](C)(CC)NC(C)=O)C(=O)N[C@H](C(=O)NC(C)(C)C(=O)N1CCC[C@H]1C(=O)N[C@H](C(=O)N[C@@H](CC(C)C)C(=O)NC(C)(C)C(=O)N1CCC[C@H]1C(=O)N[C@H](CO)C(C)C)[C@@H](C)CC)C(C)C equals 19.3

---

tested on: NCI-H460; test: Cytotoxicity against human NCI-H460 cells assessed as inhibition of cell growth after 48 hrs by MTT assay; type: cell-based; conditions: NCI-H460, 48 h
pIC50: −log10 of the molar value.
Item-by-item account of pIC50

The recorded pIC50 for entry CC[C@H](C)[C@H](NC(=O)[C@@H]1CCCN1C(=O)C(C)(C)NC(=O)[C@@H](NC(=O)[C@@H](NC(=O)[C@H](CCC(N)=O)NC(=O)[C@@](C)(CC)NC(C)=O)C(C)C)C(C)C)C(=O)N[C@@H](CC(C)C)C(=O)NC(C)(C)C(=O)N1CCC[C@H]1C(=O)N[C@H](CO)C(C)C equals < 4.52

The recorded pIC50 for entry CC[C@@H](C)[C@H](NC(=O)[C@H](CCC(N)=O)NC(=O)C(C)(C)NC(C)=O)C(=O)N[C@H](C(=O)NC(C)(C)C(=O)N1CCC[C@H]1C(=O)N[C@H](C(=O)N[C@@H](CC(C)C)C(=O)NC(C)(C)C(=O)N1CCC[C@H]1C(=O)N[C@H](CO)CC(C)C)[C@@H](C)CC)C(C)C equals < 4.52

Moving on to another compound below.
The recorded pIC50 for entry CC[C@@H](C)[C@H](NC(=O)[C@H](CCC(N)=O)NC(=O)C(C)(C)NC(C)=O)C(=O)N[C@H](C(=O)NC(C)(C)C(=O)N1CCC[C@H]1C(=O)N[C@H](C(=O)N[C@@H](CC(C)C)C(=O)NC(C)(C)C(=O)N1CCC[C@H]1C(=O)N[C@H](CO)C(C)C)[C@@H](C)CC)C(C)C equals < 4.52

Sourced from ChEMBL document CHEMBL4251684
